# Test system: HT-1080
# assayRemarks: Reduction of proMMP2 level in human HT1080 cells after 24 to 72 hrs by gelatin zymography analysis
# Type: functional, cell-based
endpointLabel: IC50

Dear colleague, I am looking for the recorded IC50 of the following compound: `CCCCCCCCCCCCNc1ccc(O)cc1`
> 10 µM

----------
# assayRemarks: Toxicity in human HT1080 cells assessed as reduction of cell growth at 1 uM after 24 hrs
# Assay type: cell-based, HT-1080
# details: HT1080 cells, read-out: Activity
endpointLabel: inhibition at 24 h, 1 µM (%)
Numeric answer only, unit % assumed.

# compound, measurementUnit, inhibition at 24 h, 1 µM
records = [
    ("CC1=C(/C=C/C(C)=C/C=C/C(C)=C/C(=O)Nc2ccc(O)cc2)C(C)(C)CCC1 [FENRETINIDE]", "%", 4),
]

Dear colleague, I am looking for the recorded inhibition at 24 h, 1 µM of the following compound: `CCCCCCCCCCCCNc1ccc(O)cc1`
8

----------
# Test system: HT-1080
# assayRemarks: Reduction of MMP2 level in human HT1080 cells after 24 to 72 hrs by gelatin zymography analysis
# Assay type: functional, cell-based
endpointLabel: pIC50
Entry type: numeric. Quantity: pIC50, the -log10 of concentration in molar units.

Hi! What's the reported pIC50 for `CCCCCCCCCCCCNc1ccc(O)cc1` on HT-1080?
5.62

----------
# Test system: HT-1080
# assayRemarks: Cytotoxicity against human HT1080 cells
# Format: functional, cell-based
endpointLabel: IC50 (µM)
Numeric answer only, unit µM assumed.

# molecule, targetOrTestSystem, val
rows = [
    ("COc1cc(C2Oc3cc([C@H]4Oc5cc(O)cc(O)c5C(=O)[C@@H]4O)ccc3OC2CO)ccc1O (stereo partly drawn)", "HT-1080", 400),
]

Dear colleague, I am looking for the recorded IC50 of the following molecule: `O=C(CCCCCCSc1ccc2ccccc2c1)NO`
3

Numbers sourced from ChEMBL document CHEMBL2417488.
